system: HTT mRNA; assay: Splicing assay (RT-qPCR) monitoring HTT canonical junction (CJ) and alternative junction (AJ) mRNA isoforms; type: cell-based; details: decrease in CJ mRNA (50% response); A673 or K562 cells, 24 h treatment, top dose 10 uM; read-out: HTT CJ AC50
ENDPOINT: AC50

>>> df
                                   compound  endpoint  reported_measurement
0  Cc1cn2nc(-c3ccc4c(=O)n(C5CCNCC5)ncc4c3)nc2c(C)n1 [Compound 259]      AC50        100 to 1000 nM
1  Cc1cn2cc(-c3ccc4c(=O)n(C5CCN(C)CC5)cnc4c3)nc2c(C)n1 [Compound 302]      AC50      1000 to 10000 nM
2  Cc1nc2c(F)cc(-c3ccc4c(=O)n(C5CCNCC5)ncc4c3)cc2o1 [Compound 250]      AC50              < 100 nM
3  Cc1cn2nc(-c3ccc4c(=O)n(C5CCNCC5)cnc4c3)nc2c(C)n1 [Compound 287]      AC50        100 to 1000 nM
4  CCN1CCC(n2ncc3cc(-c4cc(C)c5nc(C)cn5n4)ccc3c2=O)CC1 [Compound 266]      AC50              < 100 nM
5  Cc1cn2cc(-c3ccc4c(=O)n(C5CCN(C)CC5)cnc4c3F)cc(F)c2n1 [Compound 227]      AC50      1000 to 10000 nM

# get_value(readout= AC50, system= HTT mRNA) for Cc1cn2nc(-c3ccc4c(c3)CCN(C3CCNC(C)(C)C3)C4=O)cc(C)c2n1 (centres unmarked) [Compound 267]
1000 to 10000 nM

I'm curious: which AC50 was measured for Cc1cn2nc(-c3ccc4c(=O)n(C5CCNCC5)ncc4c3)cc(C)c2n1 [Compound 186] tested on HTT mRNA?
< 100 nM
